Data origin, for the record: the supplement of paper PMC10567573

B1: SNX8 (parent)
chain: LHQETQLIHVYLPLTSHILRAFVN

Variants of: B1
protocol-details: protein stability index of a GFP-peptide fusion (GPS, HEK-293T) (PSI 1-6); higher = more stable;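 note: lentivirally expressed fusions sorted by FACS into six bins by GFP to DsRed ratio, PSI derived from sequencing read proportions per bin multiplied by bin number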
experimental-context: c terminus: a fixed tail appended
Exercise: for every item that follows, state its recorded protein stability index.
Reply with just the number.

# variant LHQETQLIHVYLPLTSHILRQFVN [A21Q] ; its protein stability index = 2.01

# variant LHQEEQLIHVYLPLTSHILRAFVN [T5E] ; its protein stability index = 1.98

# variant LHQETQLIHVYLQLTSHILRAFVN [P13Q] ; its protein stability index = 2.68

# variant LHQETQLIHVYLPLTSVILRAFVN [H17V] ; its protein stability index = 1.92

# variant LHQEGQLIHVYLPLTSHILRAFVN [T5G] ; its protein stability index = 2.26

# variant LHQETQLIHVYLPLTSEILRAFVN [H17E] ; its protein stability index = 2.75

# variant LHQETQLIHVYLSLTSHILRAFVN [P13S] ; its protein stability index = 3

# variant LHQETFLIHVYLPLTSHILRAFVN [Q6F] ; its protein stability index = 2.33

# variant LHQETHLIHVYLPLTSHILRAFVN [Q6H] ; its protein stability index = 2.75

# variant LHQETQLIHVYLPLTSHILRAFVD [N24D] ; its protein stability index = 2.94

# variant LGQETQLIHVYLPLTSHILRAFVN [H2G] ; its protein stability index = 2.72

# variant NHQETQLIHVYLPLTSHILRAFVN [L1N] ; its protein stability index = 2.75

# variant LRQETQLIHVYLPLTSHILRAFVN [H2R] ; its protein stability index = 1.82

# variant LLQETQLIHVYLPLTSHILRAFVN [H2L] ; its protein stability index = 1.83

# variant LHQETQLIHVYLPLTIHILRAFVN [S16I] ; its protein stability index = 1.47

# variant LHQETQLIHVYLPLTSNILRAFVN [H17N] ; its protein stability index = 2.47

# variant LHQETQLIHVYLPLTSHILRDFVN [A21D] ; its protein stability index = 2.8

# variant LHQETQLIHVYKPLTSHILRAFVN [L12K] ; its protein stability index = 2.29

# variant LHQETQLRHVYLPLTSHILRAFVN [I8R] ; its protein stability index = 1.78

# variant LHQETQLIHVYLHLTSHILRAFVN [P13H] ; its protein stability index = 1.38

# variant LHQETQLIHVYLPLTSHILRARVN [F22R] ; its protein stability index = 2.4

# variant LHQETQLPHVYLPLTSHILRAFVN [I8P] ; its protein stability index = 1.65

# variant LHQETQLIHVYLPLCSHILRAFVN [T15C] ; its protein stability index = 2.46

# variant LHQITQLIHVYLPLTSHILRAFVN [E4I] ; its protein stability index = 2.46

# variant LHQETQLIHVYLPLTSHDLRAFVN [I18D] ; its protein stability index = 2.65

# variant LHQETQLKHVYLPLTSHILRAFVN [I8K] ; its protein stability index = 2.3

# variant LHQETQLIHVPLPLTSHILRAFVN [Y11P] ; its protein stability index = 2.78

# variant LHQETQLIHVYLPLASHILRAFVN [T15A] ; its protein stability index = 2.23

# variant LHQETQLIHVYLPPTSHILRAFVN [L14P] ; its protein stability index = 2.64

# variant LHQETQLIHVYLPLTSHILRADVN [F22D] ; its protein stability index = 2.12

# variant FHQETQLIHVYLPLTSHILRAFVN [L1F] ; its protein stability index = 3.82

# variant LHEETQLIHVYLPLTSHILRAFVN [Q3E] ; its protein stability index = 2.55

# variant LHQERQLIHVYLPLTSHILRAFVN [T5R] ; its protein stability index = 2.75

# variant LHQETQLIHVYDPLTSHILRAFVN [L12D] ; its protein stability index = 2.19

# variant LHQETQLIHVYLPCTSHILRAFVN [L14C] ; its protein stability index = 3.23

# variant LHQETQLIIVYLPLTSHILRAFVN [H9I] ; its protein stability index = 2.82

# variant LHQETQLIHVYLPLTSHILRAFFN [V23F] ; its protein stability index = 2.14

# variant LHQETQLIHVYLPLTSWILRAFVN [H17W] ; its protein stability index = 3.19

# variant LHQETQLIHVYLPLTSHIKRAFVN [L19K] ; its protein stability index = 2.47

# variant LHQETQLYHVYLPLTSHILRAFVN [I8Y] ; its protein stability index = 4.04

# variant LHQETQLIHVYLPHTSHILRAFVN [L14H] ; its protein stability index = 2.13

# variant LHQETQLIHVCLPLTSHILRAFVN [Y11C] ; its protein stability index = 3.22

# variant LHQETQEIHVYLPLTSHILRAFVN [L7E] ; its protein stability index = 1.87

# variant LHQETQLIHVYYPLTSHILRAFVN [L12Y] ; its protein stability index = 3.18

# variant LHQETQLIHVYLPLTSIILRAFVN [H17I] ; its protein stability index = 2.46

# variant LHQETQLIHVYLPLTSHILRAKVN [F22K] ; its protein stability index = 2.21

# variant LHQETNLIHVYLPLTSHILRAFVN [Q6N] ; its protein stability index = 1.6

# variant LHQEHQLIHVYLPLTSHILRAFVN [T5H] ; its protein stability index = 2.17

# variant LHQETQLIHVYLPLTSFILRAFVN [H17F] ; its protein stability index = 3.82

# variant LHQETQLGHVYLPLTSHILRAFVN [I8G] ; its protein stability index = 1.42

# variant LHQETQLIHVYLPLTHHILRAFVN [S16H] ; its protein stability index = 1.82

# variant LHQETQLIHVFLPLTSHILRAFVN [Y11F] ; its protein stability index = 2.14

# variant LHLETQLIHVYLPLTSHILRAFVN [Q3L] ; its protein stability index = 2.24

# variant LHQETQLIHVYLVLTSHILRAFVN [P13V] ; its protein stability index = 1.85

# variant LHQETQLIHVYLPLTSHILRAVVN [F22V] ; its protein stability index = 2.75

# variant LHQETQLIHVYLPLTSHILLAFVN [R20L] ; its protein stability index = 3.82

# variant LHQETQLIHVYLPLTSHILRAFTN [V23T] ; its protein stability index = 3.16

# variant IHQETQLIHVYLPLTSHILRAFVN [L1I] ; its protein stability index = 2.88

# variant LHQETQLIHVYLYLTSHILRAFVN [P13Y] ; its protein stability index = 1.95

# variant LSQETQLIHVYLPLTSHILRAFVN [H2S] ; its protein stability index = 2.03

# variant LHQETQLIHVYLPLTSHILRAFVQ [N24Q] ; its protein stability index = 2.93

# variant LHQETQLIGVYLPLTSHILRAFVN [H9G] ; its protein stability index = 3.08

# variant LHQETQLIYVYLPLTSHILRAFVN [H9Y] ; its protein stability index = 3.11

# variant LHQETQLIHVYLPLTSHLLRAFVN [I18L] ; its protein stability index = 3.11

# variant LHQATQLIHVYLPLTSHILRAFVN [E4A] ; its protein stability index = 1.83

# variant LHQETQLIHVYLPLTSHILRNFVN [A21N] ; its protein stability index = 3.01

# variant LHQETQLIHVVLPLTSHILRAFVN [Y11V] ; its protein stability index = 1.99

# variant LHQRTQLIHVYLPLTSHILRAFVN [E4R] ; its protein stability index = 2.25

# variant LHQETQLIHVYLPLTSHILREFVN [A21E] ; its protein stability index = 2.48

# variant LHQETQLIHVYLPLFSHILRAFVN [T15F] ; its protein stability index = 1.58

# variant LHQETQLIHVTLPLTSHILRAFVN [Y11T] ; its protein stability index = 1.89

# variant LHQETQLIHVQLPLTSHILRAFVN [Y11Q] ; its protein stability index = 3.1

# variant LHQETILIHVYLPLTSHILRAFVN [Q6I] ; its protein stability index = 2.75

# variant LHQETQMIHVYLPLTSHILRAFVN [L7M] ; its protein stability index = 2.9

# variant LHQETQLIHVYLPLTSHILRAFVK [N24K] ; its protein stability index = 2.06

# variant LHCETQLIHVYLPLTSHILRAFVN [Q3C] ; its protein stability index = 2.06

# variant LHQETQLLHVYLPLTSHILRAFVN [I8L] ; its protein stability index = 1.67

# variant LHQETQLIHVYLKLTSHILRAFVN [P13K] ; its protein stability index = 1.72

# variant LHQETQLIHVYLPLTSHHLRAFVN [I18H] ; its protein stability index = 2.63

# variant LHQETQLIHVYLPATSHILRAFVN [L14A] ; its protein stability index = 2.98

# variant LHQETQLIHVYLPLTSHILRAFQN [V23Q] ; its protein stability index = 2.27

# variant LHQETQHIHVYLPLTSHILRAFVN [L7H] ; its protein stability index = 1.98

# variant LHQETQPIHVYLPLTSHILRAFVN [L7P] ; its protein stability index = 3.31

# variant LHQETQLIHVYLPLTSHILQAFVN [R20Q] ; its protein stability index = 1.89

# variant LHQETQLIHVYLPLTSHILNAFVN [R20N] ; its protein stability index = 3.03

# variant LHQETQLIHRYLPLTSHILRAFVN [V10R] ; its protein stability index = 2.21
